# PROTOCOL_TEXT: amyloid nucleation score (Sup35N fusion, yeast selection) (log enrichment); library NNK2; higher = more nucleation; inactive = no reads after selection;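 further: zero at mode of non-aggregating sequences after 7 days selection at 30°C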
Label fulfilled when amyloid nucleation score is at or above 0.4; otherwise label not fulfilled.

SUBSTANCE: SFGVGEFDVNYLMERRF
CATEGORY_LABEL: not fulfilled
//
SUBSTANCE: WSVCARYSSGVCIAHCTQMK
CATEGORY_LABEL: fulfilled
//
SUBSTANCE: FATKRERNVWFMSIEWFVRG
CATEGORY_LABEL: not fulfilled
//
SUBSTANCE: YYFWSTFGSYNYLIFCYSIL
CATEGORY_LABEL: not fulfilled
//
SUBSTANCE: YMVCLRSGSIPVIDLPWYSL
CATEGORY_LABEL: not fulfilled
//
SUBSTANCE: TGDPTLLMAYSRSYVWRSER
CATEGORY_LABEL: fulfilled
//
SUBSTANCE: VCASYMQFIDHCSKKEVWLN
CATEGORY_LABEL: not fulfilled
//
SUBSTANCE: KESKLYLFLCFL
CATEGORY_LABEL: fulfilled
//
SUBSTANCE: YCGTVFHGSRRECGISVRGW
CATEGORY_LABEL: fulfilled
//
SUBSTANCE: MSHTVITFFVCIVYSFSHCL
CATEGORY_LABEL: fulfilled
//
SUBSTANCE: RRFPRHLASGRMPV
CATEGORY_LABEL: fulfilled
//
SUBSTANCE: RLWNSGCLS
CATEGORY_LABEL: not fulfilled
//
SUBSTANCE: VSGFFSDHA
CATEGORY_LABEL: not fulfilled
//
SUBSTANCE: FLPNFSNVLFSLHPASKSGE
CATEGORY_LABEL: not fulfilled
//
SUBSTANCE: SESYVLYNIFGFSVKLDEHG
CATEGORY_LABEL: not fulfilled
//
SUBSTANCE: NDTAATGANDETSDFYTEYC
CATEGORY_LABEL: not fulfilled
//
SUBSTANCE: VPVSRILNLFFVLVTL
CATEGORY_LABEL: fulfilled
//
SUBSTANCE: KTRYALPVDQCYMKNRNMLV
CATEGORY_LABEL: not fulfilled
//
SUBSTANCE: VMGEKIWSAWYTRDDQLCGS
CATEGORY_LABEL: fulfilled
//
SUBSTANCE: SLKLLYKMKLRSGQWAHIYR
CATEGORY_LABEL: not fulfilled
//
SUBSTANCE: PIIFSLSTFSCNVYEIRSNG
CATEGORY_LABEL: fulfilled
//
SUBSTANCE: SCSRLVFRRVVSGIISLCME
CATEGORY_LABEL: not fulfilled
//
SUBSTANCE: NINMWSLCRFLWDAFARR
CATEGORY_LABEL: not fulfilled
//
SUBSTANCE: IVICSVFSIMTRLFRSVNGR
CATEGORY_LABEL: fulfilled
//
SUBSTANCE: LCFQVVMPWNNISLSFLWLG
CATEGORY_LABEL: fulfilled
//
SUBSTANCE: EYIYLNLYISDNLYSSGKSG
CATEGORY_LABEL: fulfilled
//
SUBSTANCE: RVLGWCSNSWMVEMSNECSW
CATEGORY_LABEL: fulfilled
//
SUBSTANCE: RWEMLPVKSHNNLRIRK
CATEGORY_LABEL: not fulfilled
//
SUBSTANCE: TGAIRGGSVQRVHSLINPRM
CATEGORY_LABEL: not fulfilled
//
SUBSTANCE: SILDVCVSVT
CATEGORY_LABEL: not fulfilled
//
SUBSTANCE: HFYHLDTSHSGWDLKSSY
CATEGORY_LABEL: fulfilled
//
SUBSTANCE: NRCYHFRDCQVYLTQDASWA
CATEGORY_LABEL: fulfilled
//
SUBSTANCE: ILMRSYDFALGPNQCIIRAK
CATEGORY_LABEL: fulfilled
//
SUBSTANCE: LINMLGWVRFY
CATEGORY_LABEL: fulfilled
//
SUBSTANCE: SHVTGR
CATEGORY_LABEL: fulfilled
//
SUBSTANCE: SSGLGTSVGSGILNSRDKDG
CATEGORY_LABEL: fulfilled
//
SUBSTANCE: WGLGCMSQSTLHGSLISSVR
CATEGORY_LABEL: not fulfilled
//
SUBSTANCE: FKQYFSYLVGLYRS
CATEGORY_LABEL: fulfilled
//
SUBSTANCE: MHSFHTICLLLMWRESRIAV
CATEGORY_LABEL: fulfilled
//
SUBSTANCE: VLIVFNNPCFMGWALVDVVL
CATEGORY_LABEL: fulfilled
//
SUBSTANCE: NWPETT
CATEGORY_LABEL: fulfilled
//
SUBSTANCE: TLLWYCTIADRNSNVRMVAS
CATEGORY_LABEL: fulfilled
//
SUBSTANCE: CAIFVRERW
CATEGORY_LABEL: fulfilled
